Each item that follows carries a reported IC50.
- tested-target: AAK1 (Homo sapiens, UniProt Q2M2I8)
- Construct: HA; expressed in transfected cells; host or cells: HEK293F
- Sequence (Q2M2I8 1-863 isoform Q2M2I8-2): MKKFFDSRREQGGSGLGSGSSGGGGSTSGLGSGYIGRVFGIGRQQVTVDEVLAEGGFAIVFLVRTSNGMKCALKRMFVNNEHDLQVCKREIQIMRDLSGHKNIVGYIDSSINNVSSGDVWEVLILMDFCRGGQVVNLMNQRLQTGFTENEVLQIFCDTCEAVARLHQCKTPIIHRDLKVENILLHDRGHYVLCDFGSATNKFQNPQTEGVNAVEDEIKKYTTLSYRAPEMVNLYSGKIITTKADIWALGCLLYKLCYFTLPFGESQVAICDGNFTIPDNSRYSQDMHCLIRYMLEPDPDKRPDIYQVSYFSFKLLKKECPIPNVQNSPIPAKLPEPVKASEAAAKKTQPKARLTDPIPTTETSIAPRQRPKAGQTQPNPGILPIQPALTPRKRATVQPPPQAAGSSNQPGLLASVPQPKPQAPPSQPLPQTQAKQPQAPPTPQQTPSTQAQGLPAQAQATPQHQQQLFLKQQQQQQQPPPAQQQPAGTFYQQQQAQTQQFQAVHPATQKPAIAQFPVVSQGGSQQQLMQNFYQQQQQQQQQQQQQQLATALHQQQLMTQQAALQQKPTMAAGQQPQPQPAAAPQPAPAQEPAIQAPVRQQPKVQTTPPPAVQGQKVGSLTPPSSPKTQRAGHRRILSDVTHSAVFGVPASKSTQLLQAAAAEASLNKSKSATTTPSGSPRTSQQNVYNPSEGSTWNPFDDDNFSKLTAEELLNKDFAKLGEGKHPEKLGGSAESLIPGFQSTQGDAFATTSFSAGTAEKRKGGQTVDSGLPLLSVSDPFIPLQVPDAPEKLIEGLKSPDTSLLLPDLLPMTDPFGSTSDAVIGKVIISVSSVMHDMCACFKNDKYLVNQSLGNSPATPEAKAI
- assay-comment: HEK281 cell-based assay (phospho-mu2 Western blot in transfected HEK293F cells)
- stated-conditions: 3 hours incubation, read-out: CBA IC50

Examples from the recorded data:
compound: CC(=O)c1ccc(-c2cnc3ccc(NCCN(C)c4ccccc4)nn23)s1
tested-target: AAK1 (Homo sapiens, UniProt Q2M2I8)
IC50: ≤ 100 nM

compound: CC(C)OC(=O)N1CCN(c2ccc3ncc(-c4ccc[nH]c4=O)n3n2)CC1
tested-target: AAK1 (Homo sapiens, UniProt Q2M2I8)
IC50: ≤ 100 nM

Now consider a different compound.
Lookup: Identify measured IC50 associated with CN(CCCNc1ccc2ncc(-c3ccc(CN)cc3)n2n1)c1ccccc1
Found: ≤ 100 nM

----------
- tested-target: AAK1 (Homo sapiens, UniProt Q2M2I8)
- Construct: HA; expressed in transfected cells; host or cells: HEK293F
- assay-comment: HEK281 cell-based assay (phospho-mu2 Western blot in transfected HEK293F cells)
- stated-conditions: 3 hours incubation, read-out: CBA IC50
pIC50: −log10 of the molar value.
reported-property: pIC50

compound: CC(C)(C)OC(=O)N1CCCC[C@H]1CNc1ccc2ncc(-c3ccncc3)n2n1
pIC50: ≥ 7.00

Lookup: Note pIC50 for the compound shown: COc1cccc(-c2cnc3ccc(N4CCN(C(=O)OC(C)C)CC4)nn23)c1F
Found: ≥ 7.00

Lookup: Supply reported pIC50 belonging to this compound: NCc1ccc(-c2cnc3ccc(NCC4CC4)nn23)cc1
Found: ≥ 6.00

Lookup: Provide pIC50 value for the following compound: CCCC(=O)N1CCC[C@H]1CNc1ccc2ncc(-c3ccc(CN)cc3)n2n1
Found: ≥ 8.00

----------
Known pIC50 of a selection of compounds
- tested-target: AAK1 (Homo sapiens, UniProt Q2M2I8)
- Construct: HA; expressed in transfected cells; host or cells: HEK293F
- assay-comment: HEK281 cell-based assay (phospho-mu2 Western blot in transfected HEK293F cells)
- stated-conditions: 3 hours incubation, read-out: CBA IC50
pIC50: −log10 of the molar value.

The cases that follow already have their pIC50 on record.
smiles-str: CCCCN(C)c1ccc2ncc(-c3ccc(C(C)=O)s3)n2n1
pIC50: ≥ 7.00

smiles-str: CC(C)(C)OC(=O)N1CCC[C@H]1CNc1ccc2ncc(Br)n2n1
pIC50: ≥ 7.00

smiles-str: COc1cnccc1-c1cnc2ccc(N3CCN(C(=O)OC(C)(C)C)CC3)nn12
pIC50: ≥ 8.00

Next compound, pIC50 to be filled in.
Lookup: Please give measured pIC50 of the following entry: CC(C)(C)OCCCNc1ccc2ncc(-c3ccc(C(=O)NCCN)cc3)n2n1
Found: ≥ 6.00

----------
- tested-target: AAK1 (Homo sapiens, UniProt Q2M2I8)
- Construct: HA; expressed in transfected cells; host or cells: HEK293F
- assay-comment: HEK281 cell-based assay (phospho-mu2 Western blot in transfected HEK293F cells)
- stated-conditions: 3 hours incubation, read-out: CBA IC50
Recorded measurements of IC50, one per entry

smiles-str: O=C(OC1CCCC1)N1CCC[C@H]1CNc1ccc2ncc(Br)n2n1
tested-target: AAK1 (Homo sapiens, UniProt Q2M2I8)
IC50: ≤ 10 nM

Lookup: Determine its reported IC50: CCCCNc1ccc2ncc(C(=O)Nc3cn[nH]c3)n2n1
Found: ≤ 1000 nM

Lookup: For the compound CNC(=O)c1ccc(-c2cnc3ccc(NCCOC(C)(C)C)nn23)cc1 , report IC50.
Found: ≤ 100 nM

Lookup: Item Cc1cnc2ccc(NC[C@@H]3CCCN3C(=O)OC(C)(C)C)nn12 : provide IC50
Found: ≤ 100 nM

Lookup: Quote IC50 reported for CC(C)OC(=O)N1CCN(c2ccc3ncc(-c4ccccc4)n3n2)CC1 please.
Found: ≤ 100 nM

Lookup: Tell me IC50 reported for O=C(OC1CCCC1)N1CCC[C@H]1CNc1ccc2ncc(-c3ccccc3)n2n1
Found: ≤ 100 nM

Lookup: Supply reported IC50 belonging to this compound: CN(CCNc1ccc2ncc(-c3ccnc(N)c3)n2n1)C(=O)OC(C)(C)C
Found: ≤ 10 nM

Lookup: // Input: COc1cnccc1-c1cnc2ccc(NCCOC(C)(C)C)nn12 . Output its IC50 only.
Found: ≤ 100 nM
